In this section we review reported mass density values for a set of compounds.
details: 318.15 K; 101 kPa; Liquid; Vibrating tube method
Reply with just the number (in kg/m3).

Example cases with answers are listed next.
[[record]]
smiles_repr = "ClCCCCl"
measured_quantity = "mass density"
endpoint_result = 1154.67

[[record]]
smiles_repr = "CC(Cl)(Cl)Cl"
measured_quantity = "mass density"
endpoint_result = 1294.47


Next, consider the following compound.
# input Entry under review: `CCCCCl` . Reported mass density?
# output 858.52

* * *

conditions: 288.15 K; 101 kPa; Liquid; Vibrating tube method
So basically, if mass density comes in under 1000 kg/m3 it's Y, and if it's 1000 kg/m3 or more it's N.

[[record]]
smiles_repr = "ClC(Cl)C(Cl)Cl"
category_label = "N"

[[record]]
smiles_repr = "ClC(Cl)Cl"
category_label = "N"

[[record]]
smiles_repr = "CC(Cl)(Cl)Cl"
category_label = "N"

[[record]]
smiles_repr = "ClCCCCl"
category_label = "N"

[[record]]
smiles_repr = "ClCCCCCl"
category_label = "N"

[[record]]
smiles_repr = "CCCCCl"
category_label = "Y"

[[record]]
smiles_repr = "O=C1CCCCC1"
category_label = "Y"


Proceed to the following item.
# input Below 1000 kg/m3 on mass density? Entry `ClCCCl`
# output N

* * *

conditions: 298.15 K; 101 kPa; Liquid; Vibrating tube method
Outcome label depends on mass density relative to 1000 kg/m3: at/above gives rule met, below gives rule not met.

Below are worked cases with known answers.
[[record]]
smiles_repr = "ClCCCl"
category_label = "rule met"

[[record]]
smiles_repr = "O=C1CCCCC1"
category_label = "rule not met"

[[record]]
smiles_repr = "CCCCCl"
category_label = "rule not met"

[[record]]
smiles_repr = "ClCCCCl"
category_label = "rule met"

[[record]]
smiles_repr = "ClC(Cl)Cl"
category_label = "rule met"


# input # bool: mass density of `CC(Cl)(Cl)Cl` >= 1000 kg/m3
# output rule met

# input # bool: mass density of `ClC(Cl)C(Cl)Cl` >= 1000 kg/m3
# output rule met

# input # bool: mass density of `ClCCCCCl` >= 1000 kg/m3
# output rule met

* * *

conditions: 308.15 K; 101 kPa; Liquid; Vibrating tube method
So basically, if mass density comes in under 1000 kg/m3 it's Y, and if it's 1000 kg/m3 or more it's N.

[[record]]
smiles_repr = "ClC(Cl)Cl"
category_label = "N"

[[record]]
smiles_repr = "CC(Cl)(Cl)Cl"
category_label = "N"

[[record]]
smiles_repr = "ClC(Cl)C(Cl)Cl"
category_label = "N"

[[record]]
smiles_repr = "ClCCCCl"
category_label = "N"

[[record]]
smiles_repr = "ClCCCl"
category_label = "N"


# input Below 1000 kg/m3 on mass density? Entry `ClCCCCCl`
# output N

# input Below 1000 kg/m3 on mass density? Entry `CCCCCl`
# output Y

# input Below 1000 kg/m3 on mass density? Entry `O=C1CCCCC1`
# output Y

* * *

conditions: 318.15 K; 101 kPa; Liquid; Vibrating tube method
MEASURED QUANTITY: mass density (kg/m3)
Reply with just the number (in kg/m3).

[[record]]
smiles_repr = "ClCCCCCl"
measured_quantity = "mass density"
endpoint_result = 1110.61

[[record]]
smiles_repr = "ClC(Cl)Cl"
measured_quantity = "mass density"
endpoint_result = 1434.72

[[record]]
smiles_repr = "ClCCCl"
measured_quantity = "mass density"
endpoint_result = 1216.04

[[record]]
smiles_repr = "ClC(Cl)C(Cl)Cl"
measured_quantity = "mass density"
endpoint_result = 1557.94


# input Entry under review: `O=C1CCCCC1` . Reported mass density?
# output 924.82
